# systemTested: human purified αvβ5 (Homo sapiens, UniProt P06756+P18084)
# Sequence (P06756 31-889 limits assumed): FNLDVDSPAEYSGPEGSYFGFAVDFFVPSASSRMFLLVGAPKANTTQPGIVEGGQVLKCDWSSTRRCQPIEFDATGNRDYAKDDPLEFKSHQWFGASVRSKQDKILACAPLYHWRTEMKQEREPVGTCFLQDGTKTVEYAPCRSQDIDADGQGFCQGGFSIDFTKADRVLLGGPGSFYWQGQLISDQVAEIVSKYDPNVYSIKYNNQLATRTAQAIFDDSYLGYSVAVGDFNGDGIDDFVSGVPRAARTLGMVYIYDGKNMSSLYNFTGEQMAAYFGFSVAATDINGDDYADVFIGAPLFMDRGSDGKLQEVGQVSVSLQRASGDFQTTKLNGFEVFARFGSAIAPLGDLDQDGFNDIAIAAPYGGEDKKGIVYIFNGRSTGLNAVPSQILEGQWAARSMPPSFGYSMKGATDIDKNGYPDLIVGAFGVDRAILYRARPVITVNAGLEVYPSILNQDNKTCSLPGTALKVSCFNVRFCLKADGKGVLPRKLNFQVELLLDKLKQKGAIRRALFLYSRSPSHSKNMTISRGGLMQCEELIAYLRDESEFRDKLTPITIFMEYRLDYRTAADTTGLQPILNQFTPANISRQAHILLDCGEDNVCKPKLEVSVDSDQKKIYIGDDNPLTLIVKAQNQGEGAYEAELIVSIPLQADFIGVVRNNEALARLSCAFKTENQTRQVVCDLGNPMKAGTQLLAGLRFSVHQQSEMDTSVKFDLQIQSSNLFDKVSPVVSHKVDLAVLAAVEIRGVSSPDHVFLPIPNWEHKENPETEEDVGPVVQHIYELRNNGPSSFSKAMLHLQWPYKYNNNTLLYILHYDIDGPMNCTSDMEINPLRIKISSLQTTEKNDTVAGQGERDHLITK
# Sequence (P06756 891-1048 partner limits assumed): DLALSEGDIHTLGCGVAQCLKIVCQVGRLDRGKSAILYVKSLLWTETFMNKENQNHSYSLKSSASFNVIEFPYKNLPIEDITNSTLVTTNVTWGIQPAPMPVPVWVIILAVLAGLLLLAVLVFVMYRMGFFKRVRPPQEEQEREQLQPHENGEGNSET
# Sequence (P18084 24-799): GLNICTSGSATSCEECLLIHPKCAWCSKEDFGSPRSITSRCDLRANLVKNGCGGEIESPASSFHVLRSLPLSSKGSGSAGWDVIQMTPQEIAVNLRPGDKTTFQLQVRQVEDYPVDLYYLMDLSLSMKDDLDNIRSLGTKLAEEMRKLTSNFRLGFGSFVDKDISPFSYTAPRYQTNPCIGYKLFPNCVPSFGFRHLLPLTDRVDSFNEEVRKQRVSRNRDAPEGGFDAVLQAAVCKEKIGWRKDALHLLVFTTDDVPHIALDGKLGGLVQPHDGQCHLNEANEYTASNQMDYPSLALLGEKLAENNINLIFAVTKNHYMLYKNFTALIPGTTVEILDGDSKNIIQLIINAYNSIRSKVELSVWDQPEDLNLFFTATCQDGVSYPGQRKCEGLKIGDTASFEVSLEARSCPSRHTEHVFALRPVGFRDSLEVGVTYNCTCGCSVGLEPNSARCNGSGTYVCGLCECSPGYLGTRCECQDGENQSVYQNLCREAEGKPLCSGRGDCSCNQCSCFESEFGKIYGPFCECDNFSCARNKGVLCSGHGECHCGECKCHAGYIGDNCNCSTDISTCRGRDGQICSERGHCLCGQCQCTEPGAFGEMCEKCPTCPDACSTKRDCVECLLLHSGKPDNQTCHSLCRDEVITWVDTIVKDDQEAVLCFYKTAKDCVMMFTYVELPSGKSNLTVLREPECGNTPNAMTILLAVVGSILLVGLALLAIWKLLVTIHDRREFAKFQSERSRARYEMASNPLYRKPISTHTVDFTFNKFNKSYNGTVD
# procedureSummary: In vitro solid phase purified αvβ5 binding assay (vitronectin/αvβ5)
# testSettings: vitronectin binding to immobilized αvβ5
pIC50: −log10 of the molar value.
propertyLabel: pIC50

Please review the following examples before continuing.
• CCN(CC)C(=O)COC(=O)CC(NC(=O)C1CCN(C(=O)CCCNC2=NCCN2)CC1)c1cnc2ccccc2c1 (stereo not drawn) = < 5.30
• COc1ccc(C(CC(=O)O)NC(=O)C2CCN(C(=O)CCCNC3=NCCN3)CC2)cc1OC (stereo not drawn) = < 5.30

# context switch: different compound, same pIC50
Recorded pIC50 (compound COC(=O)[C@H](CNC(=O)C1CCN(C(=O)C(C)CNC2=NCCN2)CC1)NC(=O)OCc1ccccc1 (stereo partly drawn) ): 5.70

---

# systemTested: Human αvβ3 (Homo sapiens, UniProt P05106+P06756)
# Construct: purchased Chemicon International Inc., Temecula, Calif
# Sequence (P06756 31-889 limits assumed): as the sequence (P06756 31-889 limits assumed) above
# Sequence (P06756 891-1048 partner limits assumed): as the sequence (P06756 891-1048 partner limits assumed) above
# Sequence (P05106 27-788): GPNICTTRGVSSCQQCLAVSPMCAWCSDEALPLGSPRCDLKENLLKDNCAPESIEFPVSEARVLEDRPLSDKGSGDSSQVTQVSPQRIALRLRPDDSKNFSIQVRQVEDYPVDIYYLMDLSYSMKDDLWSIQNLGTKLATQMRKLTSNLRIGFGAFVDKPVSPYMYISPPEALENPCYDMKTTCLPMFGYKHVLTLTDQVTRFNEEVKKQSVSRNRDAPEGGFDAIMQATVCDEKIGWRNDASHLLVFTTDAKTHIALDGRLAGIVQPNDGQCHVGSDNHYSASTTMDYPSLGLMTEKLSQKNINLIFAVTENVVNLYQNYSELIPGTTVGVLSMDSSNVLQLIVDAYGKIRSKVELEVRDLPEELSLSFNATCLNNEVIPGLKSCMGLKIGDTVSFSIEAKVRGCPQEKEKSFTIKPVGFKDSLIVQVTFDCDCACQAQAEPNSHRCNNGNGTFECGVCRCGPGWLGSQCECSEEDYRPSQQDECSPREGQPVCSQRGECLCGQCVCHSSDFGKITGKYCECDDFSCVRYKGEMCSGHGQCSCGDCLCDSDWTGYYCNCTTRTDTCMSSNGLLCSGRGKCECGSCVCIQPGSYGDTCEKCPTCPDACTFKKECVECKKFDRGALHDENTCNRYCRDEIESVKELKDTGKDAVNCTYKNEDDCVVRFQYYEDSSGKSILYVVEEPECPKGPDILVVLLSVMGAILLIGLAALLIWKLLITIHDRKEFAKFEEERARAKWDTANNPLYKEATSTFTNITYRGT
# procedureSummary: In vitro solid phase purified αvβ3 binding assay (vitronectin/αvβ3)
# testSettings: vitronectin binding to immobilized αvβ3; read-out: αvβ3 IC50
pIC50: −log10 of the molar value.
Listing: pIC50 of selected compounds

* O=C(O)CC(NC(=O)C1CCN(C(=O)CCc2nc3ccccc3[nH]2)CC1)c1cccc2ccccc12 (stereo not shown) | < 5.30

Record for O=C(O)CC(NC(=O)C1CCN(C(=O)CCCNC2=NCCN2)CC1)c1cc(Cl)cc(Cl)c1 (stereo not shown) under target or system Human αvβ3 (Homo sapiens, UniProt P05106+P06756): pIC50 reported as 6.92

Record for Cc1cccnc1NCCCC(=O)N1CCC(C(=O)NC[C@H](NC(=O)OCc2ccccc2)C(=O)O)CC1 under target or system Human αvβ3 (Homo sapiens, UniProt P05106+P06756): pIC50 reported as < 6.52

Record for NCCCC(=O)N1CCC(C(=O)NC[C@H](NC(=O)OCc2ccccc2)C(=O)O)CC1 under target or system Human αvβ3 (Homo sapiens, UniProt P05106+P06756): pIC50 reported as < 5.30
